- measured.target: Jak1 (Homo sapiens, UniProt P23458)
- Construct: using a recombinant purified GST-tagged catalytic domain for each enzyme; GST; purchased Invitrogen M4290
- Sequence (P23458 875-1153 limits assumed): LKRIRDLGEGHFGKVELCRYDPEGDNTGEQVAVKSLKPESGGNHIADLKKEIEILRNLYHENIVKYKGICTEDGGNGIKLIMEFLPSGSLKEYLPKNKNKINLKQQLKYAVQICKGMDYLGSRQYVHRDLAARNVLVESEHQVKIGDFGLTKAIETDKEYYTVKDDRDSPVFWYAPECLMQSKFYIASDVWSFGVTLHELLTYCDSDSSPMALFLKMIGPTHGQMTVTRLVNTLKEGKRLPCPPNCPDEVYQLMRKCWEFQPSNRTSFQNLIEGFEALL
- test.summary: Jak Biochemical HTRF Assay (Jak1)
- condition.description: IC50 class, recombinant GST-tagged catalytic domain, read-out: Jak1 activity
- Description: Compounds of formula I can be prepared according to the general procedures described in the Schemes and Examples herein, using appropriate materials. Representative compounds of the present invention are exemplified herein below. […] Those skilled in the art will readily understand that known variations of protecting groups, of reagents, as well as of the conditions and processes of the following preparative procedures, can be used to prepare these compounds. […]
pIC50: −log10 of the molar value.

[
  {
    "compound": "O=C(c1cn2cccnc2n1)N1CCC[C@@H]2[C@H]1CCN2c1ncnc2[nH]ccc12 [Example 29-27]",
    "pIC50": "7.00 to 8.00"
  },
  {
    "compound": "COC(=O)c1ccc(CN(C)C(=O)N2CCC[C@@H]3[C@H]2CCN3c2ncnc3[nH]ccc23)cc1",
    "pIC50": "8.00 to 9.00"
  },
  {
    "compound": "O=C(OCc1ccc(CO)cc1)N1CCC[C@@H]2[C@H]1CCN2c1ncnc2[nH]ccc12",
    "pIC50": "6.00 to 7.00"
  },
  {
    "compound": "CN1CCN(CCOC(=O)N2CCC[C@@H]3[C@H]2CCN3c2ncnc3[nH]ccc23)CC1",
    "pIC50": "6.00 to 7.00"
  },
  {
    "compound": "CN1CCN(c2ccc(C(=O)N3CCCC4C3CCN4c3ncnc4[nH]ccc34)cc2)CC1 (centres unmarked)",
    "pIC50": "6.00 to 7.00"
  },
  {
    "compound": "CC(C(=O)N1CCC[C@@H]2[C@H]1CCN2c1ncnc2[nH]ccc12)N1CCOCC1 (mixture of isomers)",
    "pIC50": "7.00 to 8.00"
  },
  {
    "compound": "O=C(C(c1ccccc1)c1ccccc1)N1CCC[C@@H]2[C@H]1CCN2c1ncnc2[nH]ccc12",
    "pIC50": "6.00 to 7.00"
  },
  {
    "compound": "N#Cc1ccccc1C(=O)N1CCC[C@@H]2[C@H]1CCN2c1ncnc2[nH]ccc12",
    "pIC50": "7.00 to 8.00"
  }
]

----------
- measured.target: Jak1 (Homo sapiens, UniProt P23458)
- Construct: using a recombinant purified GST-tagged catalytic domain for each enzyme; GST; purchased Invitrogen M4290
- test.summary: Jak Biochemical HTRF Assay (Jak1)
- condition.description: IC50 class, recombinant GST-tagged catalytic domain, read-out: Jak1 activity
pIC50: −log10 of the molar value.
Below is a list of entries, each paired with its recorded pIC50 value.

[
  {
    "compound": "NC(=O)c1ccc(COC(=O)N2CCC[C@@H]3[C@H]2CCN3c2ncnc3[nH]ccc23)cc1",
    "pIC50": "7.00 to 8.00"
  },
  {
    "compound": "O=C(c1cc2ccccn2c1)N1CCC[C@@H]2[C@H]1CCN2c1ncnc2[nH]ccc12",
    "pIC50": "6.00 to 7.00"
  },
  {
    "compound": "O=C1CCCN1CCOC(=O)N1CCC[C@@H]2[C@H]1CCN2c1ncnc2[nH]ccc12",
    "pIC50": "6.00 to 7.00"
  },
  {
    "compound": "O=C(OCCCc1ccccc1)N1CCCC2C1CCN2c1ncnc2[nH]ccc12 (centres unmarked)",
    "pIC50": "7.00 to 8.00"
  },
  {
    "compound": "Cc1cccc(COC(=O)N2CCCC3C2CCN3c2ncnc3[nH]ccc23)c1 (centres unmarked)",
    "pIC50": "7.00 to 8.00"
  },
  {
    "compound": "C[C@H](OC(=O)N1CCCC2C1CCN2c1ncnc2[nH]ccc12)c1ccccc1 (some centres unmarked)",
    "pIC50": "7.00 to 8.00"
  },
  {
    "compound": "O=C(OCCn1ccc2ccccc21)N1CCC[C@@H]2[C@H]1CCN2c1ncnc2[nH]ccc12",
    "pIC50": "7.00 to 8.00"
  },
  {
    "compound": "O=C(OCCCc1cccnc1)N1CCCC2C1CCN2c1ncnc2[nH]ccc12 (centres unmarked)",
    "pIC50": "7.00 to 8.00"
  }
]

----------
- measured.target: Jak1 (Homo sapiens, UniProt P23458)
- Construct: using a recombinant purified GST-tagged catalytic domain for each enzyme; GST; purchased Invitrogen M4290
- test.summary: Jak Biochemical HTRF Assay (Jak1)
- condition.description: recombinant GST-tagged catalytic domain, 31.8 μM ATP, read-out: Representative IC50 values
pIC50: −log10 of the molar value.
Below is a list of entries, each paired with its recorded pIC50 value.
readout.type: pIC50

[
  {
    "molecule": "CN1CCN(CCOC(=O)N2CCC[C@@H]3[C@H]2CCN3c2ncnc3[nH]ccc23)CC1",
    "number": 6.88
  },
  {
    "molecule": "O=S(=O)(c1ccco1)N1CCC[C@@H]2[C@H]1CCN2c1ncnc2[nH]ccc12",
    "number": 7.85
  },
  {
    "molecule": "COC(=O)c1ccc(COC(=O)N2CCC[C@@H]3[C@H]2CCN3c2ncnc3[nH]ccc23)cc1",
    "number": 8.70
  },
  {
    "molecule": "O=C(OCc1ccccc1)N1CCC2C1CCCN2c1ncnc2[nH]ccc12 (stereo not drawn)",
    "number": 7.51
  },
  {
    "molecule": "O=C(c1cccs1)N1CCC[C@@H]2[C@H]1CCN2c1ncnc2[nH]ccc12",
    "number": 8.30
  },
  {
    "molecule": "O=C(OC1CCCCC1)N1CCC[C@@H]2[C@H]1CCN2c1ncnc2[nH]ccc12",
    "number": 7.96
  },
  {
    "molecule": "N#CCC(=O)N1CCCC2C1CCN2c1ncnc2[nH]ccc12 (stereo not drawn)",
    "number": 7.59
  },
  {
    "molecule": "COC(=O)c1ccc(CCCN2CCC[C@@H]3[C@H]2CCN3c2ncnc3[nH]ccc23)cc1",
    "number": 6.77
  },
  {
    "molecule": "O=S(=O)(CCc1ccccc1)N1CCC[C@@H]2[C@H]1CCN2c1ncnc2[nH]ccc12",
    "number": 8.15
  },
  {
    "molecule": "O=C(CN1CCc2ccccc2C1)N1CCC[C@@H]2[C@H]1CCN2c1ncnc2[nH]ccc12",
    "number": 7.52
  },
  {
    "molecule": "COC(=O)c1ccc(CNC(=O)N2CCC[C@@H]3[C@H]2CCN3c2ncnc3[nH]ccc23)cc1",
    "number": 7.41
  },
  {
    "molecule": "O=C(c1cn2cccnc2n1)N1CCC[C@@H]2[C@H]1CCN2c1ncnc2[nH]ccc12",
    "number": 6.88
  }
]

----------
- measured.target: Jak1 (Homo sapiens, UniProt P23458)
- Construct: using a recombinant purified GST-tagged catalytic domain for each enzyme; GST; purchased Invitrogen M4290
- test.summary: Jak Biochemical HTRF Assay (Jak1)
- condition.description: IC50 class, recombinant GST-tagged catalytic domain, read-out: Jak1 activity
- Text: Compounds of formula I can be prepared according to the general procedures described in the Schemes and Examples herein, using appropriate materials. Representative compounds of the present invention are exemplified herein below. […] Those skilled in the art will readily understand that known variations of protecting groups, of reagents, as well as of the conditions and processes of the following preparative procedures, can be used to prepare these compounds. […]
pIC50: −log10 of the molar value.
Below is a list of entries, each paired with its recorded pIC50 value.

[
  {
    "compound": "COC(=O)c1cccc(OC(=O)N2CCCC3C2CCN3c2ncnc3[nH]ccc23)c1 (centres unmarked)",
    "pIC50": "7.00 to 8.00"
  },
  {
    "compound": "Cn1c(C(=O)N2CCC[C@@H]3[C@H]2CCN3c2ncnc3[nH]ccc23)cc2ccccc21",
    "pIC50": "7.00 to 8.00"
  },
  {
    "compound": "O=C(OCc1cnccn1)N1CCCC2C1CCN2c1ncnc2[nH]ccc12 (centres unmarked)",
    "pIC50": "7.00 to 8.00"
  },
  {
    "compound": "O=C(c1cn2cccnc2n1)N1CCC[C@@H]2[C@H]1CCN2c1ncnc2[nH]ccc12 [Example 29-49]",
    "pIC50": "6.00 to 7.00"
  },
  {
    "compound": "CN(C)C(=O)c1ccc(COC(=O)N2CCC[C@@H]3[C@H]2CCN3c2ncnc3[nH]ccc23)cc1",
    "pIC50": "6.00 to 7.00"
  },
  {
    "compound": "O=C(OCCc1ccc2c(c1)CCO2)N1CCC[C@@H]2[C@H]1CCN2c1ncnc2[nH]ccc12",
    "pIC50": "7.00 to 8.00"
  },
  {
    "compound": "Cc1ccc(COC(=O)N2CCCC3C2CCN3c2ncnc3[nH]ccc23)cc1 (centres unmarked)",
    "pIC50": "7.00 to 8.00"
  },
  {
    "compound": "O=C(c1cccc2ccncc12)N1CCC[C@@H]2[C@H]1CCN2c1ncnc2[nH]ccc12",
    "pIC50": "7.00 to 8.00"
  },
  {
    "compound": "NCc1ccc(COC(=O)N2CCC[C@@H]3[C@H]2CCN3c2ncnc3[nH]ccc23)cc1",
    "pIC50": "6.00 to 7.00"
  },
  {
    "compound": "COC(=O)c1ccc(CCCOC(=O)N2CCC[C@@H]3[C@H]2CCN3c2ncnc3[nH]ccc23)cc1",
    "pIC50": "7.00 to 8.00"
  },
  {
    "compound": "O=S(=O)(c1ccccc1)N1CCC[C@@H]2[C@H]1CCN2c1ncnc2[nH]ccc12 (single isomer, unassigned)",
    "pIC50": "7.00 to 8.00"
  },
  {
    "compound": "O=C(c1ccccc1Cl)N1CCC[C@@H]2[C@H]1CCN2c1ncnc2[nH]ccc12",
    "pIC50": "7.00 to 8.00"
  },
  {
    "compound": "O=C(OCc1ccc(Cl)cc1)N1CCCC2C1CCN2c1ncnc2[nH]ccc12 (centres unmarked)",
    "pIC50": "7.00 to 8.00"
  },
  {
    "compound": "O=C(OCc1cccc(F)c1)N1CCCC2C1CCN2c1ncnc2[nH]ccc12 (centres unmarked)",
    "pIC50": "7.00 to 8.00"
  },
  {
    "compound": "N#CCC(=O)N1CCCC2C1CCN2c1ncnc2[nH]ccc12 (centres unmarked)",
    "pIC50": "7.00 to 8.00"
  },
  {
    "compound": "O=C1CCCN1CC(=O)N1CCC[C@@H]2[C@H]1CCN2c1ncnc2[nH]ccc12",
    "pIC50": "6.00 to 7.00"
  },
  {
    "compound": "O=C(OCc1ccccc1)N1CCC2C1CCCN2c1ncnc2[nH]ccc12 (centres unmarked)",
    "pIC50": "7.00 to 8.00"
  }
]
